- experimentalTarget: USP34 (UniProt Q70CQ2)
- Sequence (Q70CQ2 whole entry, the tested form may be a part): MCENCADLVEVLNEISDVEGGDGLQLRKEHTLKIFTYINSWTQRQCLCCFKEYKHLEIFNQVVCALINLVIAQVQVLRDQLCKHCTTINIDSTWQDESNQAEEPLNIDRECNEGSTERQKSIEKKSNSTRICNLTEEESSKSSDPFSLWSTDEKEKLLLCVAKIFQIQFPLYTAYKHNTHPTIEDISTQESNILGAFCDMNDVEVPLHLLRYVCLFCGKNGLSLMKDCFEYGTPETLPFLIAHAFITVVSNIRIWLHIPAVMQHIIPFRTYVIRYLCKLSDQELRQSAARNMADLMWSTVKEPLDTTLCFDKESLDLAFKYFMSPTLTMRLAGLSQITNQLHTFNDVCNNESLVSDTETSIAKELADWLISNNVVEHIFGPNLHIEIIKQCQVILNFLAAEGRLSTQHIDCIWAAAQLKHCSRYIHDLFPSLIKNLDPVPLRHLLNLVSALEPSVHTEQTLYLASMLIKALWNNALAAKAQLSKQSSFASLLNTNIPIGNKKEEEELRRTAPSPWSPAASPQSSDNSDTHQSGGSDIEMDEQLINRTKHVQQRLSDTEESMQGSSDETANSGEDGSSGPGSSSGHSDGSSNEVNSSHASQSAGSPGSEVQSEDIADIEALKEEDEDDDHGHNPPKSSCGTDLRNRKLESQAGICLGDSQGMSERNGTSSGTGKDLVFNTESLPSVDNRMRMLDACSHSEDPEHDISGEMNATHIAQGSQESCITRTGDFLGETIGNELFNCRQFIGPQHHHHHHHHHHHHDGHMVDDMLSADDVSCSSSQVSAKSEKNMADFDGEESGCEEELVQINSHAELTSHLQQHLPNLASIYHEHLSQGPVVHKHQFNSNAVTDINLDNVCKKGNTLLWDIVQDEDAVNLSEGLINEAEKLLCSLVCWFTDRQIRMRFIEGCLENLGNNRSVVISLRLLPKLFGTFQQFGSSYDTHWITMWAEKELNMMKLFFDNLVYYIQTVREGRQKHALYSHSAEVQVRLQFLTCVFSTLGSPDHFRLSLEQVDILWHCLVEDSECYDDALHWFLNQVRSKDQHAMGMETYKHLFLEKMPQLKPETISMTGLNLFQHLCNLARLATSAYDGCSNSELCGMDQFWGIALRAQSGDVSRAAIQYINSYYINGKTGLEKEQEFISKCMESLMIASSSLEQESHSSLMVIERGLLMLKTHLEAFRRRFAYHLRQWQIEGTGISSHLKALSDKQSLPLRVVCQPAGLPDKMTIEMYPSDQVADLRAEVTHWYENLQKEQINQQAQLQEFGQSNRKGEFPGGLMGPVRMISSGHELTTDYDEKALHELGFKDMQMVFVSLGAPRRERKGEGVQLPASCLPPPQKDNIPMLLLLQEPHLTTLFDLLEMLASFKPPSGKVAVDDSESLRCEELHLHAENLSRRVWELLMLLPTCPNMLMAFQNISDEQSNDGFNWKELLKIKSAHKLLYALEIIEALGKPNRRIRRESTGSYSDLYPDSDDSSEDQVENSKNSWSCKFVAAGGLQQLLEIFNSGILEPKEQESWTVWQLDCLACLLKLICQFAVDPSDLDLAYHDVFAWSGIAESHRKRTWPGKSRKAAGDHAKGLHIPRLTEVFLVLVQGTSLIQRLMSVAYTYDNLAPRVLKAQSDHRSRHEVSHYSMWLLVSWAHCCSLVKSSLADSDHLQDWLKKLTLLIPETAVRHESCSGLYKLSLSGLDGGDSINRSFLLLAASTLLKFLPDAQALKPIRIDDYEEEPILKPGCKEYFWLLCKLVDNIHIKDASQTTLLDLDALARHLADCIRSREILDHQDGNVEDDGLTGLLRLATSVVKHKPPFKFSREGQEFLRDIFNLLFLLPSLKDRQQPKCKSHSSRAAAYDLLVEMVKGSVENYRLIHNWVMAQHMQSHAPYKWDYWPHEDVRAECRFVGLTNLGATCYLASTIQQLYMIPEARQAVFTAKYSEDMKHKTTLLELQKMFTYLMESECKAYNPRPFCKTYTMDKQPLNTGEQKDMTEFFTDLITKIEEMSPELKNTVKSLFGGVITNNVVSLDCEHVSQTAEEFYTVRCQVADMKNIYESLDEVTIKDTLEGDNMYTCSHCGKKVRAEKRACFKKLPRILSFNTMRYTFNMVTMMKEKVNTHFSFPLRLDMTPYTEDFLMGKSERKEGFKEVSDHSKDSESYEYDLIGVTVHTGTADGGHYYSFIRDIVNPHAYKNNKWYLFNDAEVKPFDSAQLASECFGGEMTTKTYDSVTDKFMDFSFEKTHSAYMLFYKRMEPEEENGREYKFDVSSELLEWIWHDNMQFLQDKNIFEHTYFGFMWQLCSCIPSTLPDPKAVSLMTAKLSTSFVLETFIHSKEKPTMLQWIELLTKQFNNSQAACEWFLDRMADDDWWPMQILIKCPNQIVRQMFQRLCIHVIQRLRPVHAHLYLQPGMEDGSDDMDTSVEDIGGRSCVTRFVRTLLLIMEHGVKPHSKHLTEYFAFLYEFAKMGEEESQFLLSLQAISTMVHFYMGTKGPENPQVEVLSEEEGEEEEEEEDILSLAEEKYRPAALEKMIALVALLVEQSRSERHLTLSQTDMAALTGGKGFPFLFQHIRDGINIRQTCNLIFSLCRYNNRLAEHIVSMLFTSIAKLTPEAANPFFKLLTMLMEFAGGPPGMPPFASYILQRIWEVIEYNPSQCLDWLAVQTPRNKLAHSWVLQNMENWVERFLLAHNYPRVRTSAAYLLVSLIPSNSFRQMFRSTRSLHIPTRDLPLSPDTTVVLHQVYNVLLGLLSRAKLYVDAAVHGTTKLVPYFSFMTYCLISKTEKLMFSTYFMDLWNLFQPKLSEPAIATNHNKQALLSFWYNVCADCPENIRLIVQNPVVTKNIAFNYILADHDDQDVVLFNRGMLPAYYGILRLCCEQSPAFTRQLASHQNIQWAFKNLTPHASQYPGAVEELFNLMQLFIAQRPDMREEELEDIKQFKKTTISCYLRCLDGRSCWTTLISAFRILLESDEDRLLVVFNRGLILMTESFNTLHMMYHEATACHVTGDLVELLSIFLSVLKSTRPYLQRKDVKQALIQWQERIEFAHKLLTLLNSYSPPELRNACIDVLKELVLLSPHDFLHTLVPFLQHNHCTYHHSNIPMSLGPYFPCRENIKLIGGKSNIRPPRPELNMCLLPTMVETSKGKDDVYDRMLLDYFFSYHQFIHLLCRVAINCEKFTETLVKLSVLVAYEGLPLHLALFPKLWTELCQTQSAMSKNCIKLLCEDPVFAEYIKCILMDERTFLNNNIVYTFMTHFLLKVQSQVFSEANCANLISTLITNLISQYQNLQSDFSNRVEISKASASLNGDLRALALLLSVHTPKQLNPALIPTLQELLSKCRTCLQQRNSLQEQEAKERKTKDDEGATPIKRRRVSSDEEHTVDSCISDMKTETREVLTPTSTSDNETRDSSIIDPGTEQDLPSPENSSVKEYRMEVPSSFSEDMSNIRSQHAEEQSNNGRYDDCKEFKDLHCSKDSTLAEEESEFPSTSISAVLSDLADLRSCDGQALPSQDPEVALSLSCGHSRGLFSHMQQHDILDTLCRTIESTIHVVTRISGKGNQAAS
- protocolSummary: log2 ratio of Biotin-Ahx-Ub-VS probe labelling (fragment/DMSO); higher = less target engagement (more negative = stronger competition), active = hit call of the paper (q ≤ 0.05, log2 ratio ≤ -1)
- testContext: compound concentration: 200 uM; treatment time: 3 h
Give measured log2 ratio of Biotin-Ahx-Ub-VS probe labelling for each item. Keep answers brief.
Numbers only.

# example entries with known answers
O=C(CCl)N1CCc2[nH]c3ccccc3c2C1; -0.571
Cc1cccnc1NC(=O)C1CCN(C(=O)CCl)CC1.Cl; -0.124
Cc1cccc2nc(CCNC(=O)CCl)cn12.Cl; -0.19
Cc1cccc(NC(=O)CCl)c1C; -0.304
Cc1cccc(N(CCC#N)C(=O)CCl)c1C; -0.119
Cc1nnc(C(NC(=O)CCl)c2ccccc2)n1C (stereo not drawn); 0.334

// for each molecule below, give its log2 ratio of Biotin-Ahx-Ub-VS probe labelling
1. O=C(CCl)N(Cc1ccsc1)C1CC1
2. CC(NC(=O)CCl)c1csc(-c2ccccc2)n1.Cl (stereo not drawn)

1: -0.211; 2: -0.477

// for each molecule below, give its log2 ratio of Biotin-Ahx-Ub-VS probe labelling
1. COc1ccc(Cl)cc1NC(=O)CCl
2. O=C(CCl)N1CCC2(CCC(O)CC2)CC1
3. Cc1cnc2[nH]cc(CCNC(=O)CCl)c2c1
4. O=C(CCl)NC(Cn1ccccc1=O)c1ccccc1 (stereo not drawn)
5. CN(C)C(=O)c1ccc(CNC(=O)CCl)cc1
6. Cc1nc(-c2cccc(NC(=O)CCl)c2)cs1
7. O=C(CCl)N1CCC(c2ccn[nH]2)C1 (stereo not drawn)
8. Cc1cccc(N2CCC(NC(=O)CCl)C2=O)c1 (stereo not drawn)

1. -0.301
2. -0.363
3. -0.162
4. -0.106
5. 0.0263
6. -0.392
7. 0.0363
8. 0.0479

// for each molecule below, give its log2 ratio of Biotin-Ahx-Ub-VS probe labelling
1. O=C(CCl)Nc1ccc(F)cc1F
2. O=C(CCl)Nc1cccc(C(=O)N2CCSCC2)c1
3. O=C(CCl)NCc1noc(C2CC2)n1
4. Cc1noc(C)c1CNC(=O)CCl
5. O=C(CCl)N1CCC(=C(F)CO)C1
6. O=C(CCl)NCc1ccc(N2CCOCC2)c(F)c1
7. O=C(CCl)N1CCOCCC1c1ccccc1 (stereo not drawn)

-0.242
-0.185
-0.18
-0.584
0.0842
-0.0627
0.169

---

- experimentalTarget: UCHL3 (UniProt P15374)
- Sequence (P15374 whole entry, the tested form may be a part): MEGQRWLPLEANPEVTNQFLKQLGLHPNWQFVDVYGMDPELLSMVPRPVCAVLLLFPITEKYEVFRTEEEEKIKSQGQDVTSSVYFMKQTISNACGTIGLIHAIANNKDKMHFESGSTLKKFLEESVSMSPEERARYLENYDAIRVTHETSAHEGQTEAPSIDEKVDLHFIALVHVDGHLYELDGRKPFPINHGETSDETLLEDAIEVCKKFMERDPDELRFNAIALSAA
- protocolSummary: log2 ratio of Biotin-Ahx-Ub-VS probe labelling (fragment/DMSO); higher = less target engagement (more negative = stronger competition), active = hit call of the paper (q ≤ 0.05, log2 ratio ≤ -1)
- testContext: compound concentration: 200 uM; treatment time: 3 h
Label label 1 when log2 ratio of Biotin-Ahx-Ub-VS probe labelling is at or above 0.3; otherwise label label 0.

Cc1nc(CN2CCCN(C(=O)CCl)CC2)no1.Cl; label 1

Hello, I need to know if Cl.O=C(CCl)NC1(c2ncccn2)CCC1 has measured log2 ratio of Biotin-Ahx-Ub-VS probe labelling not below 0.3. Thanks!
label 1

Moving on to the next compound: COc1ccccc1C(C)NC(=O)CCl (configuration not stated)
label 0

Moving on to the next compound: Cc1cccc(N(CCC#N)C(=O)CCl)c1C
label 1

Moving on to the next compound: O=C(CCl)Nc1ccc2c(c1)OC(F)(F)O2
label 0

Moving on to the next compound: O=C(CCl)N1CCCN(C(=O)c2ccc(Cl)cc2)CC1
label 0

Moving on to the next compound: CN1C(=O)c2ccc(NC(=O)CCl)cc2C1=O
label 0

Moving on to the next compound: Cc1cc(CC(C)NC(=O)CCl)n[nH]1 (configuration not stated)
label 0

Moving on to the next compound: Cc1ccc(CNC(=O)CCl)nc1C.Cl
label 1
